So I've got a bunch of sequences here, and I need their apparent KD of MS2 coat protein values.
Test system: MS2 coat protein
Experiment: apparent KD of MS2 coat protein; higher = weaker reporter binding
Details: Eterna round: R107; input ligand: theophylline 20 uM
Give bare numbers, in nM.

The cases that follow already have their apparent KD of MS2 coat protein on record.
seq.text	apparent KD of MS2 coat protein, nM
ACUCGGUGUUUGUUGCUCCGAGUACGUGAUACCAGUUAAUUUUAUGGCCCUUGGCAGCAUGGGACAUGAGGAUCACCCAUGUUUA [#04 SameState-TheophyllineA]	344
AACCAUCUCGGCGAUACCAGUGCCUACGAGUACAUGAGGAUCACCCAUGUAGGUGACCGACACCCUUGGCAGCGCGAUUGAGUCA [theeternabot_sameState_MS2_Theo_B_45]	184
UGUAUGUGAUCUGAUACCAGAGAUGAUAACCUGAGGAUCACCCUGGUAAGGCGAAAGCCACUCCCUUGGCAGCAGAUCGCAUACU	40.7

The following sequences each have a reported value; give each one's apparent KD of MS2 coat protein.
1. UAUUAUCAGUCGGCCGCCACUGACACAUGAGGAUCACCCAUGUAAUUUGGGUUAUAUAGAAAAUACAGGACCGGGACUAAGGCUA [JR_ExcTryptoB_Sub014]
2. UCGUGUAUAUCGGAUACCAGUGAAAUCGAUACAUGAGGAUCACCCAUGUGAGAGGAUGUACACCCUUGGCAGCUGUAUAUAUCUG [ll,lmullin]

Result:
[324, 25.1]

The following sequences each have a reported value; give each one's apparent KD of MS2 coat protein.
1. GUAUUUAUAUGAAGGAGCGUCGAAAAUGGGUAAACAUGAGGAUCACCCAUGUAAAGGGAACGACAGGUAGGUCGCAUAUGGAUAC [AstromonsSSArgB#25]
2. ACUCGGCAUCAUGAUACCAGAGAGCCCGAGAUGCCUUAACACAUGAGGAUCACCCAUGUACUCCCUUGGCAGCAUCAUGCACUAU [theeternabot_exclusion_MS2_Theo_B_31]
3. ACACGGCAUGAUGGAUCACCUCGUGAAUCACGAGGACCGGUACGGCCGCCACUCGAAAACCGUGACCUGUACGAAAAGUGCAGGA
4. CCUCGUGCAACAUGAGGAUCACCCAUGUACCGAGGACCGGUACGGCCGCCACUCGAAAACGAGUACCAUUAGCGAAAGCUGAUGG [Trp A SS mod1]
5. UGGGUUGGACCAGGAAAUGGUCUGACGCACCGAGGACCGGUACGGCCGCCACUCGGCCGUACAUGAGGAUCACCCAUGUCGGUGU [#1 Same State - Tryptophan A Attempt #13 (HarryS)]
6. UGAGAGGGCGGAAGGAGCGACAUGAGGAUCACCCAUGUCUCCCGUUAUGGGAGUUCUUUAGGUCAGGUAGGUCGCCGGCCUCUCA [#1 Exclusion - Arginine B Attempt #10 (Inspired by Omei)]
7. UGACAUUGCUCAGAUACCAGACGUGAGGAUCACCCACGUGCCAACAUGAGGAUCACCCAUGUCCCUUGGCAGCUGAGCAAUGUCU

Result:
1: 251; 2: 29; 3: 254; 4: 16.4; 5: 486; 6: 104; 7: 24.1

====

Tested on: MS2 coat protein
Test: apparent KD of MS2 coat protein; designed switch direction (-1 OFF switch, 1 ON switch): -1; higher = weaker reporter binding
Details: input ligand: FMN 200 uM
So I've got a bunch of sequences here, and I need their apparent KD of MS2 coat protein values.
One number for each entry, in nM.

The cases that follow already have their apparent KD of MS2 coat protein on record.
seq.text	target.entity	readout.value
AAUACAAGCUAUUGAUCCCACAUGAGGAUCACCCAUGUAGGAGGCGGUGACACCUCCUUUACGAUAGCUCGUCUUAU [Sensor-V1 #53] (Eterna round: R97, puzzle: Sensor, turn-off variant 1)	MS2 coat protein	213
CCAGUGUAAGGAUAUGUAUACGUCUCUCUGGUAUGAGGGCGGCAGAAGGUACAUGAGGAUCACCCAUGUCAUAU [Eternabot (L2) Solution 94] (Eterna round: R97, puzzle: Exclusion 4)	MS2 coat protein	37.3
UUGAUGUGAGGAUAUAUUUUUUUUUUUCUUUAUGUUUUAUAACUUGAGGAUCACCCAAGUAGAAGGCGCUACGU [JR_Ex2_Sub064] (Eterna round: R97, puzzle: Exclusion 2)	MS2 coat protein	51.7
ACAUGUAAUGCAGGAUAUCUGACACAUGAGGAUCACCCAUGUGACCAGAGGAAUUGCUAUGAGUCGGAGAAGGGUAUGUACAUG [Ex NG2 #54] (Eterna round: R96, puzzle: Exclusion NG 2)	MS2 coat protein	37.7

Switching to the query record.
Ask: Given GUAAAGGGUGUCCUUAAAACAUGAGGAUCACCCAUGUGGACUAAGGAUAUCCAAAAUAAAGAUAAGGAGAAGGUAGUGGAAAGA [Usarqudi] (Eterna round: R96, puzzle: Exclusion NG 3) , state its recorded apparent KD of MS2 coat protein.
Result: 19.3
